Tested on: 519858-162-T-J1-PDC complex spheroid growth, % test/control;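 also: seven day drug exposure begun three days after spheroid seeding; 100% = DMSO vehicle wells and lower values mean less viable spheroid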
Assay: Anticancer human tumor 519858-162-T-J1-PDC patient-derived colon adenocarcinoma cell line growth inhibition [Asc]
Conditions: second compound 0.1 µM; first compound 0.00316 µM; hits give low values
Exercise: for every item that follows, state its recorded viability, T/C.
Answers are plain numbers, in %.

For each entry beneath this line, provide reported viability, T/C.
1. O=C(c1ccc(F)c(F)c1Nc1ccc(I)cc1F)N1CC(O)([C@@H]2CCCCN2)C1 + CNC(C)C(=O)NC1CN(S(=O)(=O)c2cccc(S(=O)(=O)N3CCC4CCC(C(=O)NC(c5ccccc5)c5ccccc5)N4C(=O)C(NC(=O)C(C)NC)C3)c2)CCC2CCC(C(=O)NC(c3ccccc3)c3ccccc3)N2C1=O
2. CCN1CCN(Cc2ccc(Nc3ncc(F)c(-c4cc(F)c5nc(C)n(C(C)C)c5c4)n3)nc2)CC1 + Cc1c(S(C)(=O)=O)c(-c2cc(F)cc(N3CCN(c4ccc(NS(=O)(=O)c5ccc(NC(CCN6CCC(C(=O)OCCCP(=O)(O)O)CC6)CSc6ccccc6)c(S(=O)(=O)C(F)(F)F)c5)cc4)CC3)c2)c(-c2ccc(Cl)cc2)n1C(C)C
3. CNC(C)C(=O)NC1CN(S(=O)(=O)c2cccc(S(=O)(=O)N3CCC4CCC(C(=O)NC(c5ccccc5)c5ccccc5)N4C(=O)C(NC(=O)C(C)NC)C3)c2)CCC2CCC(C(=O)NC(c3ccccc3)c3ccccc3)N2C1=O (stereo not drawn) + Cc1c(S(C)(=O)=O)c(-c2cc(F)cc(N3CCN(c4ccc(NS(=O)(=O)c5ccc(NC(CCN6CCC(C(=O)OCCCP(=O)(O)O)CC6)CSc6ccccc6)c(S(=O)(=O)C(F)(F)F)c5)cc4)CC3)c2)c(-c2ccc(Cl)cc2)n1C(C)C

Marked response:
99.4
109
113

Cited source: PubChem BioAssay AID1963421
